Where do these numbers come from? They come from ChEMBL document CHEMBL3431459.

Target: Carnitine O-palmitoyltransferase 1, liver isoform (Rattus norvegicus)
Sequence (P32198 whole entry, canonical isoform): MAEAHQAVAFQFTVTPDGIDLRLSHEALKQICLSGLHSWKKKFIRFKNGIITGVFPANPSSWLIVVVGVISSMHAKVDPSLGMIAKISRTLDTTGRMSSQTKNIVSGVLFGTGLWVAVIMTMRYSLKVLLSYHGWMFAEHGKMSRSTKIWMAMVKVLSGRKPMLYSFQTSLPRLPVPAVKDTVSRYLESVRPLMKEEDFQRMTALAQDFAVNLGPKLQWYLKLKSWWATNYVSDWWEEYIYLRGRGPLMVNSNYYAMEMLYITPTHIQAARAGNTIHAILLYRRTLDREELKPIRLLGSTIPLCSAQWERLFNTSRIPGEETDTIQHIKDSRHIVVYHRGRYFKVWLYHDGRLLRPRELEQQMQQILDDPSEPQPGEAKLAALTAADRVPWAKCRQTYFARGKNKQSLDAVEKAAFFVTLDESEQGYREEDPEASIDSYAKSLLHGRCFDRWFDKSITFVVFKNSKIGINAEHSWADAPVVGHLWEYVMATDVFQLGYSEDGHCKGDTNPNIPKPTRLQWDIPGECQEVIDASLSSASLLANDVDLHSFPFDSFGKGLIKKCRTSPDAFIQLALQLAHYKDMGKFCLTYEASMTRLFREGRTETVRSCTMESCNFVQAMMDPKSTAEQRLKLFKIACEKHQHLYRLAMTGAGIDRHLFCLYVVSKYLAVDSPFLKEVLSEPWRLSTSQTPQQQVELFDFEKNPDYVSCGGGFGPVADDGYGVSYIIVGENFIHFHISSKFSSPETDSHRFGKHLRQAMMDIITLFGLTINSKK
Experiment: SUPPLEMENTARY: Inhibition of Carnitine palmitoyltransferase 1, liver isoform
ENDPOINT: IC50 (nM)
Output spec: scalar in nM, unitless text.

Before answering, review these 5 worked examples.
O=C(COc1ccccc1)N1CCCC[C@@H]1c1nc(-c2cccc(O)c2)no1 : 97.9
O=C(COc1ccccc1)N1CCCC[C@@H]1c1nc(-c2ccncc2)cs1 : 265
NS(=O)(=O)c1ccc(-c2noc(C3C4CC4CN3C(=O)COc3ccccc3)n2)cc1 (stereo unspecified) : 90.8
O=C(COc1ccccc1)N1CCCC[C@@H]1c1noc(-c2ccc3[nH]cnc3c2)n1 : 234
O=C(COc1ccccc1)N1CCCC[C@@H]1c1nc(-c2ccc3c(c2)OCO3)cs1 : 224

# input for lookup
Reported IC50 for O=C(COc1ccccc1)N1CCCC[C@@H]1c1nc(-c2ccc(-c3cnc[nH]3)cc2)no1 was 239

----------
Molecular target: Carnitine O-palmitoyltransferase 1, liver isoform (Homo sapiens, UniProt P50416)
Sequence (P50416 whole entry): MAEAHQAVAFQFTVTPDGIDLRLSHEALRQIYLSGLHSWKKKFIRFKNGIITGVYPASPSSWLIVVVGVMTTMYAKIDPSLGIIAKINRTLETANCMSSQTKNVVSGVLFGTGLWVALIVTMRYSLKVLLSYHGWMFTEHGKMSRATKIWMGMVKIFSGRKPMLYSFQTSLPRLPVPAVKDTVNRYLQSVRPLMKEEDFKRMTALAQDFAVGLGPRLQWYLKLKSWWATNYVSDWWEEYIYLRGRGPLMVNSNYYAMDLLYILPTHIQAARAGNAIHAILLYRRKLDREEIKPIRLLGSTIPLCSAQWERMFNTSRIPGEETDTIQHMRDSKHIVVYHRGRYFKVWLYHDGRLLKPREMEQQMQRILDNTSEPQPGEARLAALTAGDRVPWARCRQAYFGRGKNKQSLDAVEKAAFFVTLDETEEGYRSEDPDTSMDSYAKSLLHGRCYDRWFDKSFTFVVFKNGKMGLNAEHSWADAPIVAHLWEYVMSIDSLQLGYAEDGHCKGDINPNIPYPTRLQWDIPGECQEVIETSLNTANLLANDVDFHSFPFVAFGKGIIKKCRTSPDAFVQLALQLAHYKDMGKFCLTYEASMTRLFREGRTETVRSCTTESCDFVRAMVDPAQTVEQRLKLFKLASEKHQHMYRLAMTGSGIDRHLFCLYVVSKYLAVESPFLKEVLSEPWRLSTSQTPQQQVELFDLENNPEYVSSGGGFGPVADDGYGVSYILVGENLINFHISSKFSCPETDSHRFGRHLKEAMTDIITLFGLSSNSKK
Test: SUPPLEMENTARY: Inhibition of Carnitine palmitoyltransferase 1, liver isoform
ENDPOINT: IC50
State the result as a value with its unit after it.

In the examples that follow, each entry is paired with its recorded IC50.
COc1ccc(Cl)cc1S(=O)(=O)c1nn(C)c2ccc(C(=O)Nc3ccc(C(=O)O)c(Cl)c3)cc12 : 41.6 nM
O=C(COc1ccccc1)N1CCCC[C@@H]1c1nc(-c2ccc3[nH]c(=O)[nH]c3c2)no1 : 35.4 nM
O=C([C@H]1CCCCN1C(=O)COc1ccccc1)N1CCc2ccccc2C1 : 252 nM
O=C1Cc2cc(-c3noc([C@H]4CCCCN4C(=O)COc4ccccc4)n3)ccc2N1 : 13.2 nM
COc1ccc(Cl)cc1CN1C(=O)OC(C)(C)c2ccc(C(=O)Nc3ccc(CC(=O)O)c(Cl)c3)cc21 : 331 nM

The recorded IC50 for entry COc1ccc(Cl)cc1S(=O)(=O)c1nn(CC(=O)O)c2ccc(C(=O)Nc3ccccc3)cc12 equals 38.4 nM

In plain terms, O=C(COc1ccccc1)N1CCCC[C@@H]1c1noc(-c2ccc3[nH]nnc3c2)n1 has a documented IC50 of 79.4 nM

Please fill in: IC50 reported for COc1ccc(Cl)cc1S(=O)(=O)N(C)c1cc(C(=O)Nc2ncc(CC(=O)O)s2)cc2c1OCO2 = 67.9 nM

Value of IC50 reported for the compound O=C(COc1ccccc1)N1CCCC[C@@H]1c1nc(-c2ccc(-c3cnc[nH]3)cc2)no1 is 164 nM

Given item COc1ccc(Cl)cc1S(=O)(=O)N(c1cc(C(=O)Nc2nc(CC(=O)O)cs2)cc2c1OCO2)C(C)C , the value recorded as its IC50 is 224 nM

IC50 reading for COc1ccc(Cl)cc1Sc1cn(C)c2ccc(C(=O)Nc3ccc(C(=O)O)cc3)cc12 : 61.9 nM

So, CNC(=O)c1cncc(-c2noc([C@H]3CCCCN3C(=O)COc3ccccc3)n2)c1 ? Its IC50 was 203 nM

Record O=C(COc1ccccc1)N1CCNCC1c1nc(-c2ccc(N3CCOCC3)cc2)no1 (centres undefined) , field IC50: 88.7 nM

Memo: Nc1cccc(-c2nc([C@H]3CCCCN3C(=O)COc3ccccc3)no2)n1 , reported IC50: 111 nM

IC50 for O=C(COc1ccccc1)N1CCCC[C@@H]1c1nc(-c2ccc(Cl)cc2)cs1 is 1380 nM

Sample O=C(COc1ccccc1)N1CCCC[C@@H]1c1nc(-c2cccc(N3CCCS3(=O)=O)c2)no1 ; IC50 observed: 59.7 nM

COc1ccc(Cl)cc1Sc1c[nH]c2ccc(C(=O)Nc3ccc(C(=O)O)cc3)cc12 yielded IC50 of 200 nM

# IC50 of CCN(c1cc(C(=O)Nc2ccn(CC(=O)O)n2)cc2c1OCO2)S(=O)(=O)c1cc(Cl)ccc1OC = 339 nM

Memo: COc1ccc(Cl)cc1S(=O)(=O)N1COCc2ccc(C(=O)Nc3ccc(C(=O)O)cc3)cc21 , reported IC50: 59.7 nM

Lab book: IC50 of O=C([C@H]1CCCCN1C(=O)COc1ccccc1)N1CCc2cccc(Cl)c2C1 noted as 182 nM

Lab note: COc1ccc(Cl)cc1S(=O)(=O)N1C[C@H](C(=O)O)Oc2ccc(C(=O)Nc3ccccc3)cc21 gave IC50 of 46.6 nM

Entry CC(=O)Nc1cccc(-c2nc([C@H]3CCCCN3C(=O)COc3ccccc3)n(C)n2)c1 — recorded IC50 = 201 nM

# IC50 of COc1ccc(Cl)cc1S(=O)(=O)N1CCSc2ccc(C(=O)Nc3ccc(CC(=O)O)cc3)cc21 = 120 nM

The reported IC50 of the compound Cn1cc(Sc2cccc(Cl)c2)c2cc(C(=O)Nc3ccc(C(=O)O)cc3)ccc21 was 43.4 nM
